Molecular target: T1, human ROR1 protein (ROR1-His; Sino Biological, Catalog #13968-H08H) (human, UniProt Q01973 30-406)
T1 construct: extracellular domain; Bought protein; also called human recombinant ROR1 protein
Experiment: ELISA, plate coated with ROR1-His (1 ug/ml), bound antibody detected with HRP-conjugated anti-Fab polyclonal antibody, OD at 450 nm
pEC50: −log10 of the molar value.
Binary call on pEC50: Condition met from 9 upward, Condition not met beneath that.

Examples from the recorded data:
M2 (PTM mutant of BA6 IgG) (antibody, V domains shown, IgG of BA6 with one mutation; Kabat L51) VH: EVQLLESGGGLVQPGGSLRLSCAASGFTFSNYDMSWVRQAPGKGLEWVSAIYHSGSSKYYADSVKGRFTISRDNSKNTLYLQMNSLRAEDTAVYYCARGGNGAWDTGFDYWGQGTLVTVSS VL: QSVLTQPPSASGTPGQRVTISCSGSSSNIGSNDVSWYQQLPGTAPKLLIYYTNNRPSGVPDRFSGSKSGTSASLAISGLRSEDEADYYCGAWDDSLSGYVFGGGTKLTVL : Condition not met
M3 (PTM mutant of BA6 IgG) (antibody, V domains shown, IgG of BA6 with one mutation; Kabat L51) VH: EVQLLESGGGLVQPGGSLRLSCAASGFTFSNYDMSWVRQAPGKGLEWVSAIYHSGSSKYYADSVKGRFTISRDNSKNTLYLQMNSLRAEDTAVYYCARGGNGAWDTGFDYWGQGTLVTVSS VL: QSVLTQPPSASGTPGQRVTISCSGSSSNIGSNDVSWYQQLPGTAPKLLIYYENNRPSGVPDRFSGSKSGTSASLAISGLRSEDEADYYCGAWDDSLSGYVFGGGTKLTVL : Condition met
BA6 antibody (WT) (antibody, V domains shown, Anti-ROR1 antibody from WO2019-225992 A1, said to be based on IgG1; only the variable domains are tied to the monospecific IgG; also called BA6 IgG (WT); parental clone) VH: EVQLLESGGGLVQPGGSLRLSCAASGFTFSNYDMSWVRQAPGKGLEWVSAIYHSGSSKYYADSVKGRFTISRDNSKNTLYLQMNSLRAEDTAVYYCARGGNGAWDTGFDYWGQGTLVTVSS VL: QSVLTQPPSASGTPGQRVTISCSGSSSNIGSNDVSWYQQLPGTAPKLLIYYDNNRPSGVPDRFSGSKSGTSASLAISGLRSEDEADYYCGAWDDSLSGYVFGGGTKLTVL : Condition met

**Query** Could you please find out whether M1 (PTM mutant of BA6 IgG) (antibody, V domains shown, IgG of BA6 with one mutation) VH: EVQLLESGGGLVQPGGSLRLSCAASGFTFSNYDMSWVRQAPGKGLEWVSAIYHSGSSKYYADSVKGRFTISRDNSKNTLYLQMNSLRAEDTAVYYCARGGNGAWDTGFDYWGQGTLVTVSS VL: QSVLTQPPSASGTPGQRVTISCSGSSSNIGSNDVSWYQQLPGTAPKLLIYYANNRPSGVPDRFSGSKSGTSASLAISGLRSEDEADYYCGAWDDSLSGYVFGGGTKLTVL has pEC50 that meets 9 or exceeds it?
**Result** Condition met

**Query** Could you please find out whether M4 (PTM mutant of BA6 IgG) (antibody, V domains shown, IgG of BA6 with one mutation; Kabat L51) VH: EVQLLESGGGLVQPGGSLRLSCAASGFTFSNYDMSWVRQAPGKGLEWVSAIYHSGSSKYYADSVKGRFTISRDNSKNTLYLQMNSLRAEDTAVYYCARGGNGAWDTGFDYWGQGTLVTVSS VL: QSVLTQPPSASGTPGQRVTISCSGSSSNIGSNDVSWYQQLPGTAPKLLIYYSNNRPSGVPDRFSGSKSGTSASLAISGLRSEDEADYYCGAWDDSLSGYVFGGGTKLTVL has pEC50 that meets 9 or exceeds it?
**Result** Condition not met

**Query** Given M5 (PTM mutant of BA6 IgG) (antibody, V domains shown, IgG of BA6 with one CDRH3 mutation) VH: EVQLLESGGGLVQPGGSLRLSCAASGFTFSNYDMSWVRQAPGKGLEWVSAIYHSGSSKYYADSVKGRFTISRDNSKNTLYLQMNSLRAEDTAVYYCARGGNYAWDTGFDYWGQGTLVTVSS VL: QSVLTQPPSASGTPGQRVTISCSGSSSNIGSNDVSWYQQLPGTAPKLLIYYDNNRPSGVPDRFSGSKSGTSASLAISGLRSEDEADYYCGAWDDSLSGYVFGGGTKLTVL , state whether its pEC50 is at least 9.
**Result** Condition not met
